Assay procedure: NCI Yeast Anticancer Drug Screen. Data for the sgs1 mgt1 strain (AID 161);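 note: 0% = growth of cultures given vehicle only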
Condition parameters: S. cerevisiae sgs1 mgt1 strain, at 50.0 µM (retest, dose inferred, filed as 5.0), stronger effect = higher value
The panel holds about 79,000 compounds, 15% with a hit somewhere; the sample as a whole holds those more often.
Measurement name: growth inhibition (%)
Answers are plain numbers, in %.

Below: 5 compounds and their reported growth inhibition.
| Compound | U | growth inhibition |
| --- | --- | --- |
| O=C(/C=C/c1ccccc1)CCC1C(=O)c2ccccc2C1=O | % | 42 |
| Oc1ccc(Cl)cc1Cc1cc(Cl)ccc1O | % | 99 |
| O=[N+]([O-])c1ccc(C2N(Cc3ccc(Cl)cc3)CCN2Cc2ccc(Cl)cc2)cc1 | % | 100 |
| Nc1ccc(-c2ccc(N)c(S(=O)(=O)O)c2)cc1S(=O)(=O)O | % | 3 |
| COc1cc(/C=C/C(=O)CC(=O)/C=C/c2ccc(O)c(OC)c2)ccc1O | % | 89 |

Let us examine a further case.
Request: Let me know recorded growth inhibition for CCOc1ccc(C(CN2CCOCC2)C(C)=O)cc1OC (stereo unspecified) , thanks.
Response: 30
